Assign abundance fitness to each entry below.
B1: Gamma-crystallin C, residues 91 to 170; numbered along this chain, P07315 (parent)
chain: RLYEREDHKGLMMELSEDCPSIQDRFHLSEIRSLHVLEGCWVLYELPNYRGRQYLLRPQEYRRCQDWGAMDAKAGSLRRV

# Variants of: B1
# assay-overview: abundance fitness (aPCA) (normalised: wild type 0, dead -1); higher = more abundant; growth selection in yeast, the domain comes from the species named
# condition-summary: Homo sapiens

Past entries and their recorded results:
mutant	abundance fitness
A69R	-0.964
D18F	-0.955
E6V	-0.53
D24T	-0.202
L2W	-0.847

Go through the items and report each one's abundance fitness.
1. H35M
2. H27S
3. K73M

Reply:
-0.222
-0.079
-0.231

Go through the items and report each one's abundance fitness.
1. D66P
2. L15E
3. L55H
4. E4W
5. S16Q
6. Q59D
7. G68L

Reply:
1: -0.879; 2: -0.89; 3: -0.053; 4: -0.78; 5: -0.132; 6: -0.217; 7: -0.529
